Value source: patent US5942535A

# PROCEDURE TEXT: physchem
# TEST CONTEXT: aqueous solution
MEASUREMENT NAME: degraded at 24 h

Req: Find the recorded degraded at 24 h belonging to CC1(C)Cc2c(-c3ccccc3)c(-c3ccc(Cl)cc3)c(CC(=O)O)n2C1 and report it.
Resp: ~2%

###

# TARGET UNDER TEST: cyclooxygenase (CO) (Bos taurus, UniProt O62664)
# Construct: endogenous in cells
# Sequence (O62664 25-600): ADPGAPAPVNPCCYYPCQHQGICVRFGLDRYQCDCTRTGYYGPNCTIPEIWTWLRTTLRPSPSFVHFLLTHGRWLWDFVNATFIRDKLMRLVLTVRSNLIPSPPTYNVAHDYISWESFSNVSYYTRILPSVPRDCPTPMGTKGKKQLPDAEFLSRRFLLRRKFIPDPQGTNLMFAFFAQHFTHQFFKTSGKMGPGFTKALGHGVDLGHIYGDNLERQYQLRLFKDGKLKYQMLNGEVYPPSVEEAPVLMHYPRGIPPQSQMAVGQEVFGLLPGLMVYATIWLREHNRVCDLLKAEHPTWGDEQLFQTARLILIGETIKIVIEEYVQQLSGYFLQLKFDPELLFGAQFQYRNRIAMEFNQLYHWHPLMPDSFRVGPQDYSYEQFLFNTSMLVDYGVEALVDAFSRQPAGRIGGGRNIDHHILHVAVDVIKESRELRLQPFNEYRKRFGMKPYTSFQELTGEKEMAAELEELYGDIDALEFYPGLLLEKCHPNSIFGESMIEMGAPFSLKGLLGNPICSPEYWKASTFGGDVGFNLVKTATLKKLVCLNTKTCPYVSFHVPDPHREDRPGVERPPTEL
# PROCEDURE TEXT: Inhibition of the enzyme cyclooxygenase (CO)
# TEST CONTEXT: second figure of cell 'LO/CO'; decimal comma; concentration unit inferred; read-out: 7) IC50 CO
MEASUREMENT NAME: pIC50
Numbers only, as −log10 of the molar value.

Req: Find the recorded pIC50 belonging to CC1(C)Cc2c(-c3ccccc3)c(-c3ccc(Cl)cc3)c(CC(=O)NS(C)(=O)=O)n2C1 and report it.
Resp: 6.82

###

# PROCEDURE TEXT: physchem
# TEST CONTEXT: chloroform
MEASUREMENT NAME: half-life

Req: Find the recorded half-life belonging to CC1(C)Cc2c(-c3ccccc3)c(-c3ccc(Cl)cc3)c(CC(=O)O)n2C1 and report it.
Resp: ~1 h
